test system: H4 (Low Grade Glioma); assay: combination Emax (second highest fraction inhibited in the dose matrix, 72 h); higher = more inhibition; extreme values may be limits of the assay
value kind: combination Emax
Respond using a number only.

Examples with their reported combination Emax follow.
N#Cc1cnc(Nc2cc(NC[C@H]3CNCCO3)c(C(F)(F)F)cn2)cn1 [SRA737] + C=CCn1c(=O)c2cnc(Nc3ccc(N4CCN(C)CC4)cc3)nc2n1-c1cccc(C(C)(C)O)n1 [AZD1775] (first compound max 10 µM, partner max 1 µM) :: 0.792
CC(=O)c1c(C)c2cnc(Nc3ccc(N4CCNCC4)cn3)nc2n(C2CCCC2)c1=O [Palbociclib] + Cc1c2c(nn1C)CSCc1cc(n(C)n1)CSc1cc(c3ccccc3c1)OCCCc1c(C(=O)O)n(C)c3c-2c(Cl)ccc13 [AZD5991] (first compound max 10 µM, 7x7, partner max 1 µM) :: 0.601
Cc1c2c(nn1C)CSCc1cc(n(C)n1)CSc1cc(c3ccccc3c1)OCCCc1c(C(=O)O)n(C)c3c-2c(Cl)ccc13 [AZD5991] + CC1(C)CCC(CN2CCN(c3ccc(C(=O)NS(=O)(=O)c4ccc(NCC5CCOCC5)c([N+](=O)[O-])c4)c(Oc4cnc5[nH]ccc5c4)c3)CC2)=C(c2ccc(Cl)cc2)C1 [Venetoclax] (first compound max 1 µM, 7x7, partner max 1 µM) :: 0.726

For C[C@@H](Nc1cc(F)cc(F)c1)c1cc(C(=O)N(C)C)cc2c(=O)cc(N3CCOCC3)oc12 [AZD8186] + CC(=O)c1c(C)c2cnc(Nc3ccc(N4CCNCC4)cn3)nc2n(C2CCCC2)c1=O [Palbociclib] (first compound max 10 µM, 7x7, partner max 10 µM) , write its combination Emax. 0.697

###

system: P31-FUJ (Acute Myeloid Leukemia); test: Bliss excess, mean over the matrix (fraction); higher = more synergy
# maps each entry to its Bliss excess
Respond using a number only.

Examples with their reported Bliss excess follow.
CN(CCO)CC[C@H](CSc1ccccc1)Nc1ccc(S(=O)(=O)NC(=O)c2ccc(N3CCC([C@@H](O)c4ccccc4-c4ccc(Cl)cc4)CC3)cc2)cc1S(=O)(=O)C(F)(F)F [AZD4320] + CN(C)CCCOc1ccc(-c2ccc3ncc4c(c3c2)n(C2CCOCC2)c(=O)n4C)cn1 [AZD0156] (first compound max 1 µM, 7x7, partner max 1 µM) :: 0.0814
COc1nnc2ccc(N3CCC(c4ccc(OCCN5CCN(C)C(=O)[C@H]5C)cc4)CC3)nn12 [AZD5153] + CC1(C)CCC(CN2CCN(c3ccc(C(=O)NS(=O)(=O)c4ccc(NCC5CCOCC5)c([N+](=O)[O-])c4)c(Oc4cnc5[nH]ccc5c4)c3)CC2)=C(c2ccc(Cl)cc2)C1 [Venetoclax] (first compound max 1 µM, 7x7, partner max 1 µM) :: -0.0447

Okay, next one:
For N#Cc1cnc(Nc2cc(NC[C@H]3CNCCO3)c(C(F)(F)F)cn2)cn1 [SRA737] + Nc1ccn([C@@H]2O[C@H](CO)[C@@H](O)C2(F)F)c(=O)n1 [Gemcitabine] (first compound max 10 µM, 7x7, partner max 0.3 µM) , write its Bliss excess. 0.057

###

tested on: Saos-2 (Osteosarcoma); assay: Bliss excess, mean over the matrix (fraction); higher = more synergy
Label MET when Bliss excess >= -0.003; otherwise NOT MET.

Would you say O=C(c1cc(Cc2n[nH]c(=O)c3ccccc23)ccc1F)N1CCN(C(=O)C2CC2)CC1 [Olaparib] + CN(CC[C@H](CSC1=CC=CC=C1)NC2=C(C=C(C=C2)S(=O)(=O)NC(=O)C3=CC=C(C=C3)N4CCC(CC4)[C@H](C5=CC=CC=C5C6=CC=C(C=C6)Cl)O)S(=O)(=O)C(F)(F)F)CCO [AZD4320] (first compound max 10 µM, 7x7, partner max 1 µM) shows Bliss excess at minimum -0.003? NOT MET

Would you say CC1(C)CCC(CN2CCN(c3ccc(C(=O)NS(=O)(=O)c4ccc(NCC5CCOCC5)c([N+](=O)[O-])c4)c(Oc4cnc5[nH]ccc5c4)c3)CC2)=C(c2ccc(Cl)cc2)C1 [Venetoclax] + CS(=O)(=O)CCNCc1ccc(-c2ccc3ncnc(Nc4ccc(OCc5cccc(F)c5)c(Cl)c4)c3c2)o1 [Lapatinib] (first compound max 1 µM, 7x7, partner max 10 µM) shows Bliss excess at minimum -0.003? NOT MET

Would you say NC1(C(=O)N[C@@H](CCO)c2ccc(Cl)cc2)CCN(c2ncnc3[nH]ccc23)CC1 [Capivasertib] + COc1nnc2ccc(N3CCC(c4ccc(OCCN5CCN(C)C(=O)[C@H]5C)cc4)CC3)nn12 [AZD5153] (first compound max 10 µM, 7x7, partner max 1 µM) shows Bliss excess at minimum -0.003? MET

Would you say CN(CCO)CC[C@H](CSc1ccccc1)Nc1ccc(S(=O)(=O)NC(=O)c2ccc(N3CCC([C@@H](O)c4ccccc4-c4ccc(Cl)cc4)CC3)cc2)cc1S(=O)(=O)C(F)(F)F [AZD4320] + CC(=O)O[C@H]1C(=O)[C@@]2(C)[C@H]([C@H](OC(=O)c3ccccc3)[C@]3(O)C[C@H](OC(=O)[C@H](O)[C@@H](NC(=O)c4ccccc4)c4ccccc4)C(C)=C1C3(C)C)[C@]1(OC(C)=O)CO[C@@H]1C[C@@H]2O [Paclitaxel] (first compound max 1 µM, 7x7, partner max 3 µM) shows Bliss excess at minimum -0.003? MET

Would you say Cn1cnc2c(F)c(Nc3ccc(Br)cc3Cl)c(C(=O)NOCCO)cc21 [Selumetinib] + CCN(CCO)CCCOc1ccc2c(Nc3cc(CC(=O)Nc4cccc(F)c4)[nH]n3)ncnc2c1 [AZD2811] (first compound max 10 µM, 7x7, partner max 1 µM) shows Bliss excess at minimum -0.003? MET

Would you say NC1(C(=O)N[C@@H](CCO)c2ccc(Cl)cc2)CCN(c2ncnc3[nH]ccc23)CC1 [Capivasertib] + Cn1cnc2c(F)c(Nc3ccc(Br)cc3Cl)c(C(=O)NOCCO)cc21 [Selumetinib] (first compound max 10 µM, 7x7, partner max 10 µM) shows Bliss excess at minimum -0.003? MET

Would you say COc1nnc2ccc(N3CCC(c4ccc(OCCN5CCN(C)C(=O)[C@H]5C)cc4)CC3)nn12 [AZD5153] + CCN(CCO)CCCOc1ccc2c(Nc3cc(CC(=O)Nc4cccc(F)c4)[nH]n3)ncnc2c1 [AZD2811] (first compound max 1 µM, 7x7, partner max 1 µM) shows Bliss excess at minimum -0.003? NOT MET
